The reported numbers originate from ChEMBL document CHEMBL4765230.

Recorded bioavailability by entry
- assay-notes: Oral bioavailability in rat at 5 mg/kg
- Type: ADME, organism-based
- condition-parameters: in vivo

{"structure-smiles-string": "N#Cc1c(N)nc(N)nc1N[C@H](c1nc2c(F)ccc(Cl)c2c(=O)n1-c1cccnc1)C1CC1", "endpoint-result": "57%"}
{"structure-smiles-string": "C[C@H](Nc1nc(N)nc(N)c1C#N)c1nc2c(F)ccc(Cl)c2c(=O)n1-c1cccnc1", "endpoint-result": "24%"}
{"structure-smiles-string": "C[C@H](Nc1nc(N)nc(N)c1C#N)c1nc2cccc(Cl)c2c(=O)n1-c1cccnc1", "endpoint-result": "42%"}

Lookup: Need bioavailability, item "CC[C@H](Nc1nc(N)nc(N)c1C#N)c1nc2c(F)ccc(Cl)c2c(=O)n1-c1cccnc1"
Found: 37%

Lookup: Need bioavailability, item "C[C@H](Nc1nc(N)nc(N)c1C#N)c1nc2c(F)ccc(Cl)c2c(=O)n1-c1cncc(F)c1"
Found: 46%

* * *

Recorded Ratio IC50 by entry
- assay-notes: Selectivity index, ratio of IC50 for inhibition of human full length PI3K p110alpha/p85alpha to IC50 for inhibition of human full length PI3K p110delta/p85alpha
When you answer, write just the number.

{"structure-smiles-string": "N#Cc1c(N)nc(N)nc1N[C@H](c1nc2c(F)ccc(Cl)c2c(=O)n1-c1cccnc1)C1CC1", "Ratio IC50": 750}
{"structure-smiles-string": "C[C@H](Nc1nc(N)nc(N)c1C#N)c1nc2cccc(F)c2c(=O)n1-c1cc(F)cc(F)c1", "Ratio IC50": 1900}
{"structure-smiles-string": "C[C@H](Nc1nc(N)nc(N)c1C#N)c1nc2cccc(Cl)c2c(=O)n1-c1cccnc1", "Ratio IC50": 1700}

Lookup: Need Ratio IC50, item "C[C@H](Nc1nc(N)nc(N)c1C#N)c1nc2cccc(Cl)c2c(=O)n1-c1ccccc1"
Found: 2200

* * *

Recorded Vd by entry
- assay-notes: Volume of distribution at steady state in rat at 1 mg/kg, iv
- Format: ADME, organism-based
- condition-parameters: in vivo, read-out: Vdss
Numbers only here, please. The scale is L/kg.

{"structure-smiles-string": "C[C@H](Nc1nc(N)nc(N)c1C#N)c1nc2c(F)ccc(Cl)c2c(=O)n1-c1cccnc1", "quantity-measured": "Vd", "endpoint-result": 3.2}
{"structure-smiles-string": "N#Cc1c(N)nc(N)nc1N[C@H](c1nc2c(F)ccc(Cl)c2c(=O)n1-c1cccnc1)C1CC1", "quantity-measured": "Vd", "endpoint-result": 0.83}
{"structure-smiles-string": "CC[C@H](Nc1nc(N)nc(N)c1C#N)c1nc2c(F)ccc(Cl)c2c(=O)n1-c1cccnc1", "quantity-measured": "Vd", "endpoint-result": 0.54}
{"structure-smiles-string": "C[C@H](Nc1nc(N)nc(N)c1C#N)c1nc2cccc(Cl)c2c(=O)n1-c1cccnc1", "quantity-measured": "Vd", "endpoint-result": 1.9}

Okay, next one:
Lookup: Need Vd, item "C[C@H](Nc1nc(N)nc(N)c1C#N)c1nc2c(F)ccc(Cl)c2c(=O)n1-c1cncc(F)c1"
Found: 1.4

* * *

- assay-notes: Selectivity index, ratio of IC50 for inhibition of human full length PI3K p110gamma to IC50 for inhibition of human full length PI3K p110delta/p85alpha
quantity-measured: Ratio IC50
When you answer, write just the number.

{"structure-smiles-string": "C[C@H](Nc1nc(N)nc(N)c1C#N)c1nc2cccc(Cl)c2c(=O)n1-c1ccccc1", "Ratio IC50": 60}
{"structure-smiles-string": "N#Cc1c(N)nc(N)nc1N[C@H](c1nc2c(F)ccc(Cl)c2c(=O)n1-c1cccnc1)C1CC1", "Ratio IC50": 190}
{"structure-smiles-string": "C[C@H](Nc1nc(N)nc(N)c1C#N)c1nc2cccc(Cl)c2c(=O)n1-c1cccnc1", "Ratio IC50": 120}

Lookup: Need Ratio IC50, item "C[C@H](Nc1nc(N)nc(N)c1C#N)c1nc2cccc(F)c2c(=O)n1-c1cc(F)cc(F)c1"
Found: 180
